target.of.assay: T1, HLA-A*0201 (human)
T1 construct: MHC monomer first loaded with a UV-sensitive peptide that is cleaved and exchanged for the test peptide; captured on streptavidin; also called peptide-receptive MHC molecules
assay: UV-ligand exchange, streptavidin/anti-b2m sandwich ELISA
Source text: Candidate peptides for the vaccines according to the present invention were further tested for immunogenicity by in vitro priming assays. The individual peptide-MHC complexes required for these assays were produced by UV-ligand exchange, where a UV-sensitive peptide is cleaved upon UV-irradiation, and exchanged with the peptide of interest as analyzed. Only peptide candidates that can effectively bind and stabilize the peptide-receptive MHC molecules prevent dissociation of the MHC complexes. […]
value.kind: Average exchange yield in % (%)

binder	Average exchange yield in % [%]
KIQEMQHFL (synthetic peptide from MMP12) [MMP12-003]	57
SLAGDVALQQL (synthetic peptide from NCAPD2) [NCAPD2-001]	76
SLFGNSGILENV (synthetic peptide from CEP192) [CEP192-001]	56
ILQDRLNQV (synthetic peptide from CDC6) [CDC6-001]	48
AMFENFVSV (synthetic peptide from NCBP1) [NCBP1-001]	65

A: YLIHFPVSV (synthetic peptide from AKR1C1, AKR1C2) [AKR-001]
B: KIYNEFISV (synthetic peptide from RGS4) [RGS4-001]
C: ILFEINPKL (synthetic peptide from ABCA13) [ABCA13-001]
Ask | Put these in order: smallest Average exchange yield in % first, largest last. The reply should contain the labels ordered as requested.
Reply | A, B, C
(A: 13%, B: 49%, C: 93%)

1: ILMGTELTQV (synthetic peptide from OLFM1) [OLFM1-001]
2: FLLDGSANV (synthetic peptide from COL6A3) [COL6A3-002]
Ask | Among 1 and 2 , which shows a numerically higher Average exchange yield in % result? Identify your selection by its label.
Reply | 2
(2: 81%, 1: 48%)
